Attribution: the supplement of paper PMC6555819

System: PPARg:RXRa DBDmut IVT, anti-RXR (DBD mutation: RXRa K156A/R161A, NR concentration 270 nM, RXRa partner concentration 90 nM)
Test: PBM binding z-score (relative to random genomic background probes); higher = stronger binding; sequences stand for … in GC…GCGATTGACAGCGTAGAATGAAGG
Readings of PBM binding z-score for the listed sequences
Assay readout: PBM binding z-score

INSERT INTO assay_data (chain, reported_measurement) VALUES
  ('CCTATTCGTTGACCATAAGGGCAACCGAAGCTCG', 0.434),
  ('GATACAGGGTCAAGGCCAAAGTACGCGTATTGAT', 2.58),
  ('ATATGTAGGTTCAGGGTCATTCAGGTTGGTTCGC', 3.41),
  ('TCTCGGACGACACGAAAGGTCAGAGCTCGACATC', 1.5),
  ('CGTCCAAGGTCAGCAGATCAGTGAAAGCGACGTG', 2.68),
  ('ACTAGCAGCCCAAGTTTGGGTCACTCAAACAAAG', -0.54),
  ('GTACCAAGGTGAATAGGTCGTTCATGAGTAGGCG', 1.96),
  ('CGACCAAGGTCAATGCTAGGTCAGTGAAAGCATT', 3.29),
  ('ACTAGCAGGCCAAGCTTGGGTCACTCAAACAAAG', 1.14),
  ('TCTTGTAGATCAATAGGGGTTAAGAAAGTGCGCT', 2.59),
  ('CTCGAAAGGTCGGTTGAGGTGAGTTTACGGATAA', 1.08),
  ('TTACCAAGGTGAAAGGTCTTTGATGCACGCCTTG', 2.19),
  ('CCTTACGGGTGACGAGGTTATAGCACGACGAGCG', 1.91),
  ('CAAACTAGGTCACATAGGTCAAAGTCCGTGCGTA', 8.33),
  ('ACTATTACTTGACTTAGGGCAACCGATACGACGC', 0.692),
  ('TCATATAGGTAAAAGGTGAAACTCGGTGTGGTAA', 5.96),
  ('AGTCAAAGTTCACTACGTAACGTAAGATTCAGCT', 0.373),
  ('ATATGTAGGTTAGATGGGGTCATTCAGACTAGGC', 6.56),
  ('TCATATAGGTAAAAGCTAGGTGAAAGTCCGATCT', 3.84),
  ('CGCCCAAGGTCAAGGTCAGTGAAAGAGACTCGAA', 3.15),
  ('CCGAGTAGGTTATGGGGCATTCACGCAACGGTGA', 3.46),
  ('CCGACTGGGGCAAAGGTGACCATACTCAGTACGA', 5.54),
  ('TCTAGTTGGTCACGGCGGTCACACACGACGGGTA', 2.36),
  ('CATAGCAGGCCAGGGTCACTCAAGCATTTCGCTT', 1.4),
  ('TCAGACAGGGGAAGGTAACTCAGGTACGCAGTCG', 2.26),
  ('GCGACTGGGGCATAGCAGGTTACCATAAGGTTGG', 3.87);
